Measured values drawn from patent US6444671B1 for this set.

test system: recombinant human PDE4; construct: PDE4 IC50 (nM); other: recombinant human PDE4; test: PDE4 inhibition, recombinant human PDE4, [32P]cAMP charcoal separation assay; type: biochemical
Measured Parameter: IC50 (µM)

CCc1nn(C2CCCC2)c2cc([C@@H]3CN(Cc4ccccc4)C[C@@]3(C)C(C)O)ccc12 (stereo partly shown) [Example 1] = 0.316

I = CCc1nn(C2CCCC2)c2cc([C@@H]3CN(Cc4ccccc4)C[C@@]3(C)C(C)O)ccc12 (stereo partly shown) [Example 2]
II = CCc1nn(C2CCCC2)c2cc([C@@H]3CN(Cc4ccccc4)C[C@@]3(C)CO)ccc12 [Example 3]
Among I and II , which shows a numerically higher IC50 result? Response format: the label of the selected entry.
I
(I: 0.0876 µM, II: 0.0061 µM)
